I'd appreciate it if you could supply composite z-score values for the items below.
Test system: glycogen synthase kinase-3 (GSK3A per assay name; protocol says GSK3B)
Test: GSK3 binders on small-molecule microarrays, primary screen, biochemical, small-molecule microarray, 635 nm fluorescence, GSK3A (AID 1103); note: the record names both GSK3A and GSK3B
Conditions: small-molecule microarray binding, fluorescence 635 nm; higher = more signal
Enter a number only.

Query the reported composite z-score for glycogen synthase kinase-3 (GSK3A per assay name; protocol says GSK3B); item: COCCOC(=O)N1C(=O)[C@@]2(c3cc(C#CCC(C(=O)OC)C(=O)OC)ccc31)[C@H](C(N)=O)[C@H]1C(=O)O[C@H](c3ccccc3)[C@H](c3ccccc3)N1[C@@H]2c1ccccc1OCCO
1.31

Query the reported composite z-score for glycogen synthase kinase-3 (GSK3A per assay name; protocol says GSK3B); item: C=CCOC(=O)[C@@H]1[C@H]2C(=O)O[C@H](c3ccccc3)[C@H](c3ccccc3)N2[C@H](c2ccc(OCCOC(=O)[C@H]3C[C@H]4C(=O)N[C@@H](CCCCN(C)C)C(=O)N4[C@H]3c3cccc(OCCO)c3)cc2)[C@@]12C(=O)Nc1ccccc12
0.602

Query the reported composite z-score for glycogen synthase kinase-3 (GSK3A per assay name; protocol says GSK3B); item: CCN1C(=O)C2CC(=O)C3C(CN(S(=O)(=O)c4ccc(C)cc4)C3c3ccc(C)cc3)C2C1=O (stereo not given)
0.338

Query the reported composite z-score for glycogen synthase kinase-3 (GSK3A per assay name; protocol says GSK3B); item: CCCC[C@@H](O)C1=C(C)Cn2c(=O)n(-c3ccccc3)c(=O)n2[C@H]1CO
-0.349

Query the reported composite z-score for glycogen synthase kinase-3 (GSK3A per assay name; protocol says GSK3B); item: CCCCC(=C=CC[C@H](O)c1cccc(OCCO)c1)C[C@H](O)c1cc(Cl)cc(Cl)c1O
0.25

Query the reported composite z-score for glycogen synthase kinase-3 (GSK3A per assay name; protocol says GSK3B); item: COC(=O)[C@@]1(Cc2ccc(OC)cc2)[C@@H]2[C@@H](CC(=O)[C@H]2CC(=O)C(=O)N(C)C)CN1C(=O)c1ccccc1
1.18

Query the reported composite z-score for glycogen synthase kinase-3 (GSK3A per assay name; protocol says GSK3B); item: [N-]=[N+]=NCc1ccccc1C[C@@]1(C(N)=O)N=C(c2ccc(OCCCO)cc2)O[C@@H]1c1ccccc1N=[N+]=[N-]
1.19

Query the reported composite z-score for glycogen synthase kinase-3 (GSK3A per assay name; protocol says GSK3B); item: O=C1O[C@@H](c2ccccc2)[C@@H](c2ccccc2)N2[C@@H](c3ccccc3OCCO)[C@]3(C(=O)Nc4ccc(C#CC5(O)CCCCCC5)cc43)[C@@H](C(=O)N3CCCCCCC3)[C@H]12
1.45

Query the reported composite z-score for glycogen synthase kinase-3 (GSK3A per assay name; protocol says GSK3B); item: COCCOC(=O)N1C(=O)[C@@]2(c3cc(C#CCCO)ccc31)[C@H](C(=O)N1CCN(c3ncccn3)CC1)[C@H]1C(=O)O[C@H](c3ccccc3)[C@H](c3ccccc3)N1[C@@H]2c1ccc(OCCO)cc1
0.823

Query the reported composite z-score for glycogen synthase kinase-3 (GSK3A per assay name; protocol says GSK3B); item: CN1C(=O)C2C(C1=O)C1C=C(CCCO)C2C(C2CC2)N1C (stereo not given)
-0.83

Query the reported composite z-score for glycogen synthase kinase-3 (GSK3A per assay name; protocol says GSK3B); item: C[N+](C)(C)CCCC[C@@H]1NC(=O)[C@H]2C[C@@H](C(=O)NCCCCCN)[C@@H](c3ccc(O)cc3)N2C1=O
1.34

Query the reported composite z-score for glycogen synthase kinase-3 (GSK3A per assay name; protocol says GSK3B); item: C[C@]1(C(=O)NCC(F)(F)F)c2ccccc2C(=O)N(Cc2cc(C(F)(F)F)cc(C(F)(F)F)c2)[C@H]1c1ccc(CO)cc1
-0.447

Query the reported composite z-score for glycogen synthase kinase-3 (GSK3A per assay name; protocol says GSK3B); item: CC(C)N1C(=O)[C@@]2(Cc3ccccc31)c1ccccc1C(=O)N(Cc1ccccc1C(F)(F)F)[C@H]2c1ccc(CO)cc1
0.366

Query the reported composite z-score for glycogen synthase kinase-3 (GSK3A per assay name; protocol says GSK3B); item: COC(=O)[C@]1(Cc2ccccc2CN=[N+]=[N-])N=C(c2ccc(OCCCO)cc2)O[C@@H]1c1ccccc1N=[N+]=[N-]
0.135

Query the reported composite z-score for glycogen synthase kinase-3 (GSK3A per assay name; protocol says GSK3B); item: COc1ccc(CCNC(=O)[C@@]2(C)c3ccccc3C(=O)N(Cc3ccc(OC(F)(F)F)cc3)[C@H]2c2ccc(CO)cc2)cc1
1.3
